Catalogue of compounds with associated residual activity
# subject of test: Calcium/calmodulin-dependent protein kinase type II subunit gamma (Homo sapiens)
# experimental setup: at 10 µM

>  <smiles repr>
COc1ccc(OC)c2c(=S)c3ccccc3[nH]c12

>  <residual activity>
54%

$$$$
>  <smiles repr>
CC(=O)O/N=C1\C(=C2\C(=O)Nc3cc(Br)ccc32)Nc2ccccc21

>  <residual activity>
4%

$$$$
>  <smiles repr>
Cn1nc2c3c(cccc31)C(=O)c1ccccc1-2

>  <residual activity>
37%

$$$$
>  <smiles repr>
Cn1cnc2cc3c(Nc4cccc(Br)c4)ncnc3cc21

>  <residual activity>
43%

$$$$
>  <smiles repr>
Cc1ccc(NC2=CC(=O)c3sc(C)nc3C2=O)cc1

>  <residual activity>
98%

$$$$
>  <smiles repr>
Cc1nc(-c2ccccc2)c(-c2ccncc2)o1

>  <residual activity>
83%

$$$$
>  <smiles repr>
N#CCCc1ccc2c(c1)-c1[nH]c3ccc([N+](=O)[O-])cc3c1CC(=O)N2

>  <residual activity>
1%

$$$$

* * *

# subject of test: Serine/threonine-protein kinase SIK1 (Homo sapiens) (UniProt P57059)
# Sequence (P57059 whole entry): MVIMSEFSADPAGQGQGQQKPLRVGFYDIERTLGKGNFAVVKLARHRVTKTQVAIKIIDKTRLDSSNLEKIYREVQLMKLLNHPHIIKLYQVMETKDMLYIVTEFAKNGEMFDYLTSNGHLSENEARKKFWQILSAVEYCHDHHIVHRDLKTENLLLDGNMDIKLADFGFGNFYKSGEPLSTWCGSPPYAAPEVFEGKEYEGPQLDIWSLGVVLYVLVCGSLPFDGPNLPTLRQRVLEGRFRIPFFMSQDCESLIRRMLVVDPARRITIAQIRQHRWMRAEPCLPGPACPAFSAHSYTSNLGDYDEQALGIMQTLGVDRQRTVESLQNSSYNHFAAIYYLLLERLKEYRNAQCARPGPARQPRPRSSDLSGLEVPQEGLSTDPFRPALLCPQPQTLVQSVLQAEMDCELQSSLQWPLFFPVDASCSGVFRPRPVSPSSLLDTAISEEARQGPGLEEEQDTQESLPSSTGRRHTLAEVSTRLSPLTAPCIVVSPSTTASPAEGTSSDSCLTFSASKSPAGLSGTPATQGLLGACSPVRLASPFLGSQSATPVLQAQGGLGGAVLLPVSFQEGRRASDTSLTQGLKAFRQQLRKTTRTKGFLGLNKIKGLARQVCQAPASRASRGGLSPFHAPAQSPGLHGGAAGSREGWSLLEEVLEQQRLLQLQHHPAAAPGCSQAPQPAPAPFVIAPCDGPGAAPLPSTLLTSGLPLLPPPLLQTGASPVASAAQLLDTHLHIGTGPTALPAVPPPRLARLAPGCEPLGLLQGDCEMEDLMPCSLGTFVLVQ
# experimental setup: at 1 µM
Entries annotated with measured residual activity
outcome measure: residual activity (%)

>  <smiles repr>
N#CC(C#N)=C(N)/C(C#N)=C/c1ccc(O)cc1

>  <outcome measure>
residual activity

>  <unit of measure>
%

>  <value reported>
90

$$$$
>  <smiles repr>
COc1ccc(C(=O)Nc2sc3c(c2C(N)=O)CCCC3)cc1OC

>  <outcome measure>
residual activity

>  <unit of measure>
%

>  <value reported>
91

$$$$
>  <smiles repr>
Cc1cccc(-c2[nH]c(C(C)(C)C)nc2-c2ccc3c(c2)OCO3)n1

>  <outcome measure>
residual activity

>  <unit of measure>
%

>  <value reported>
90

$$$$
>  <smiles repr>
CC(C)n1cnc2/c(=N/c3cccc(Cl)c3)nc(NCCO)[nH]c21

>  <outcome measure>
residual activity

>  <unit of measure>
%

>  <value reported>
90

$$$$

* * *

# subject of test: Protein kinase C beta type (Homo sapiens) (UniProt P05771)
# Sequence (P05771 2-671 limits assumed): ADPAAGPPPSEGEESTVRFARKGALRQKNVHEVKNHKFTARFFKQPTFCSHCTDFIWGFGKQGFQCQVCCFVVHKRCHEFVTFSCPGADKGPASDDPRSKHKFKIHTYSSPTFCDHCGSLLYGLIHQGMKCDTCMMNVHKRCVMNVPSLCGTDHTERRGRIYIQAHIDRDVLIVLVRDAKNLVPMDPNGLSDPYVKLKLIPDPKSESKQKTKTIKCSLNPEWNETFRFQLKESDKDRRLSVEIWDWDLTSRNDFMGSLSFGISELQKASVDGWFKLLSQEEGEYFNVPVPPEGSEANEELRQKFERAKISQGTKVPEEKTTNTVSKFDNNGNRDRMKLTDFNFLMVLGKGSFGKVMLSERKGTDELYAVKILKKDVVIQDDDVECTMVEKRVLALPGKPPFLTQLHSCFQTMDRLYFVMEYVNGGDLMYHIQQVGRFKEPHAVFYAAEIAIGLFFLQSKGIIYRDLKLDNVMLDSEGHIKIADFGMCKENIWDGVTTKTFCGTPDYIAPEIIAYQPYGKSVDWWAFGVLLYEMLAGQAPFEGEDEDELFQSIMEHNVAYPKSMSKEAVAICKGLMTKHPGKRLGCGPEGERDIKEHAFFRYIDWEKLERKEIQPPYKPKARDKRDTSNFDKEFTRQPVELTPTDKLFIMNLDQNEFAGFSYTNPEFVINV
# experimental setup: at 10 µM

>  <smiles repr>
CC(=O)O/N=C1\C(=C2\C(=O)Nc3cc(Br)ccc32)Nc2ccccc21

>  <subject of test>
Protein kinase C beta type (Homo sapiens) (UniProt P05771)

>  <unit of measure>
%

>  <residual activity>
94

$$$$
>  <smiles repr>
Oc1c2ccccc2c2c3c(cccc13)N=N2

>  <subject of test>
Protein kinase C beta type (Homo sapiens) (UniProt P05771)

>  <unit of measure>
%

>  <residual activity>
102

$$$$
>  <smiles repr>
Cn1cnc2cc3c(Nc4cccc(Br)c4)ncnc3cc21

>  <subject of test>
Protein kinase C beta type (Homo sapiens) (UniProt P05771)

>  <unit of measure>
%

>  <residual activity>
95

$$$$
>  <smiles repr>
CC[n+]1c(/C=C/N(C)c2ccccc2)n(-c2ccccc2)c2ccc(-c3nc4ccccc4s3)cc21

>  <subject of test>
Protein kinase C beta type (Homo sapiens) (UniProt P05771)

>  <unit of measure>
%

>  <residual activity>
92

$$$$
>  <smiles repr>
O=Nc1c(-c2c(O)[nH]c3ccccc23)[nH]c2ccccc12

>  <subject of test>
Protein kinase C beta type (Homo sapiens) (UniProt P05771)

>  <unit of measure>
%

>  <residual activity>
102

$$$$
>  <smiles repr>
Cc1ccc(NC2=CC(=O)c3sc(C)nc3C2=O)cc1

>  <subject of test>
Protein kinase C beta type (Homo sapiens) (UniProt P05771)

>  <unit of measure>
%

>  <residual activity>
101

$$$$
>  <smiles repr>
Cc1nc2cc3nc(-c4cccs4)cnc3cc2n1C

>  <subject of test>
Protein kinase C beta type (Homo sapiens) (UniProt P05771)

>  <unit of measure>
%

>  <residual activity>
99

$$$$
>  <smiles repr>
c1ccc2c(-c3ccncc3)c[nH]c2c1

>  <subject of test>
Protein kinase C beta type (Homo sapiens) (UniProt P05771)

>  <unit of measure>
%

>  <residual activity>
65

$$$$
>  <smiles repr>
COc1cc2ncnc(Nc3ccc(NC(=O)c4ccccc4)cc3)c2cc1OC

>  <subject of test>
Protein kinase C beta type (Homo sapiens) (UniProt P05771)

>  <unit of measure>
%

>  <residual activity>
94

$$$$
>  <smiles repr>
O=C1NC(=O)/C(=C/c2ccc3c(c2)OC(F)(F)O3)S1

>  <subject of test>
Protein kinase C beta type (Homo sapiens) (UniProt P05771)

>  <unit of measure>
%

>  <residual activity>
102

$$$$
>  <smiles repr>
COc1cc2ncc(-c3ccccc3)nc2cc1OC

>  <subject of test>
Protein kinase C beta type (Homo sapiens) (UniProt P05771)

>  <unit of measure>
%

>  <residual activity>
96

$$$$
>  <smiles repr>
O=[N+]([O-])c1ccc(-c2nc(-c3ccc(F)cc3)c(-c3ccncc3)[nH]2)cc1

>  <subject of test>
Protein kinase C beta type (Homo sapiens) (UniProt P05771)

>  <unit of measure>
%

>  <residual activity>
96

$$$$
>  <smiles repr>
CN(C)c1ccc(/C=C2\C(=O)Nc3ccccc32)cc1

>  <subject of test>
Protein kinase C beta type (Homo sapiens) (UniProt P05771)

>  <unit of measure>
%

>  <residual activity>
98

$$$$
>  <smiles repr>
CCOc1cc2ncnc(Nc3cccc(Br)c3)c2cc1OCC

>  <subject of test>
Protein kinase C beta type (Homo sapiens) (UniProt P05771)

>  <unit of measure>
%

>  <residual activity>
103

$$$$
>  <smiles repr>
O=C1NC(=O)/C(=C\c2ccc3nccnc3c2)S1

>  <subject of test>
Protein kinase C beta type (Homo sapiens) (UniProt P05771)

>  <unit of measure>
%

>  <residual activity>
100

$$$$
>  <smiles repr>
COc1ccc(CNc2nc(N(CCO)CCO)nc3c2ncn3C(C)C)cc1

>  <subject of test>
Protein kinase C beta type (Homo sapiens) (UniProt P05771)

>  <unit of measure>
%

>  <residual activity>
79

$$$$
>  <smiles repr>
COc1cc2ncnc(Nc3ccc(O)c(Br)c3)c2cc1OC

>  <subject of test>
Protein kinase C beta type (Homo sapiens) (UniProt P05771)

>  <unit of measure>
%

>  <residual activity>
97

$$$$
>  <smiles repr>
CC(=O)c1ccc(N2CCOCC2)cc1O

>  <subject of test>
Protein kinase C beta type (Homo sapiens) (UniProt P05771)

>  <unit of measure>
%

>  <residual activity>
93

$$$$

// provenance: ChEMBL document CHEMBL2218924
